biological target: VIM-2 (Veronese metallo-β-lactamase-2) (Escherichia coli); assay: Enzyme inhibition assay, VIM-2; type: biochemical; conditions: read-out: pIC50 VIM-2 (converted)
VALUE KIND: IC50 (nM)
# unit: nM | format: bare number

Worked cases, IC50 given:
>>> quantitative_result("Cc1cccc2c(-c3ccc(N4CCOCC4)cc3)c(C(=O)O)[nH]c12 [Example 13]")
1580
>>> quantitative_result("Cc1cccc2c(-c3ccc([N+](=O)[O-])cc3)c(C(=O)O)[nH]c12 [Example 8]")
251
>>> quantitative_result("Cc1ccc2[nH]c(C(=O)O)c(-c3ccc(F)cc3)c2c1 [Example 121]")
39800

The reported value for COc1cccc(-c2c(C(=O)O)[nH]c3c(C(C)C)cccc23)c1OC [Example 77] in terms of IC50 is 6.31

Sure, the documented IC50 for Cc1cccc2c(-c3ccccc3)c(C(=O)O)[nH]c12 [Example 37] is 398

// recorded IC50 for CC(C)c1cccc2c(-c3ccc(S(N)(=O)=O)cc3)c(C(=O)O)[nH]c12 [Example 65] : 12.6

* * *

biological target: NDM-1 (New Delhi metallo-β-lactamase-1) (Klebsiella pneumoniae, UniProt C7C422); assay: Enzyme inhibition assay, NDM-1; type: biochemical; conditions: read-out: pIC50 NDM-1 (converted)
Sequence (C7C422 29-270, looked up, species assumed): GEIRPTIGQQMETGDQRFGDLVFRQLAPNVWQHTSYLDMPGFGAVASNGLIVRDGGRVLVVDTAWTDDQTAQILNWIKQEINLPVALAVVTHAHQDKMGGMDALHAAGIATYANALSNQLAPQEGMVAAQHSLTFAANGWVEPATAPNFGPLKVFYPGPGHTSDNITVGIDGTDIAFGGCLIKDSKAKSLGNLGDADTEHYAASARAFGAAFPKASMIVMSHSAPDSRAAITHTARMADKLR
Please note: IC50 exactly at 30 nM is f. Only values below 30 nM get t.

>>> category_label("COc1ccc2c(-c3ccc(F)cc3)c(C(=O)O)[nH]c2c1C")
"t"
>>> category_label("Cc1cccc2c(C3CCCCC3)c(C(=O)O)[nH]c12")
"f"

Criterion: IC50 strictly below 30 nM. Is it met by CC(C)c1cccc2c(-c3ccc(C(=O)N(C)C)cc3)c(C(=O)O)[nH]c12 ?
t

Below 30 nM on IC50? Entry CNC(=O)c1ccc(-c2c(C(=O)O)[nH]c3c(C(C)C)cccc23)cc1
t

* * *

target: VIM-2 (Veronese metallo-β-lactamase-2) (Escherichia coli); test: Enzyme inhibition assay, VIM-2; format: biochemical; details: read-out: pIC50 VIM-2 (converted)
Response field label takes Condition met when IC50 is strictly below 100 nM and Condition not met in all other cases.

See these solved cases before continuing.
>>> category_label("CC(C)c1cccc2c(-c3ccccc3Cl)c(C(=O)O)[nH]c12")
"Condition met"
>>> category_label("Cc1cccc2c(C3CCCCC3)c(C(=O)O)[nH]c12")
"Condition not met"
>>> category_label("CC(C)c1cccc2c(-c3ccc(C(=O)N(C)C)cc3)c(C(=O)O)[nH]c12")
"Condition met"
>>> category_label("Cc1cccc2c(-c3ccc(C4CC4)cc3)c(C(=O)O)[nH]c12")
"Condition not met"

Please check: IC50 for Cc1cccc2c(-c3ccc(S(=O)(=O)N(C)C)cc3)c(C(=O)O)[nH]c12 , strictly under 100 nM or not?
Condition not met

For this compound, is IC50 lower than 100 nM? Cc1cccc2c(-c3cccc([N+](=O)[O-])c3)c(C(=O)O)[nH]c12
Condition not met

Quick check: does Cc1cccc2c(C3CCN(C(=O)OC(C)(C)C)CC3)c(C(=O)O)[nH]c12 have IC50 under 100 nM?
Condition not met

I'd appreciate it if you could check whether O=C(O)c1[nH]c2c(C3CC3)cccc2c1-c1ccc(F)cc1 has IC50 smaller than 100 nM.
Condition met

Just wondering, is IC50 of CCCc1cccc2c(-c3ccc(F)cc3)c(C(=O)O)[nH]c12 below 100 nM?
Condition not met

Threshold test, IC50 < 100 nM: CN(C)S(=O)(=O)c1ccc(-c2c(C(=O)O)[nH]c3c(CCOc4ccccc4)cccc23)cc1
Condition met

Please let me know if Cc1cccc2c(-c3ccn4ncnc4c3)c(C(=O)O)[nH]c12 shows IC50 below 100 nM.
Condition not met

Is it true that IC50 reported for Cc1cccc2c(-c3ccc(Br)cc3)c(C(=O)O)[nH]c12 is less than 100 nM?
Condition not met

Does the reported IC50 of the following compound sit strictly below 100 nM? Cc1ccc2c(-c3ccc(F)cc3)c(C(=O)O)[nH]c2c1C
Condition not met

* * *

biological target: NDM-1 (New Delhi metallo-β-lactamase-1) (Klebsiella pneumoniae); test: Enzyme inhibition assay, NDM-1; type: biochemical; settings: read-out: pIC50 NDM-1 (converted)
Response field label: string, one of met (IC50 strictly below 50 nM) or not met.

>>> category_label("Cc1cccc2c(-c3cccc(N(C)C)c3)c(C(=O)O)[nH]c12 [Example 17]")
"not met"
>>> category_label("O=C(O)c1[nH]c2c(C(F)(F)F)cccc2c1-c1ccc(F)cc1 [Example 51]")
"not met"
>>> category_label("CC(C)c1cccc2c(-c3ccc(S(C)(=O)=O)cc3)c(C(=O)O)[nH]c12 [Example 67]")
"met"
>>> category_label("CC(C)c1cccc2c(-c3ccc(C(=O)O)cc3)c(C(=O)O)[nH]c12 [Example 91]")
"met"
>>> category_label("Cc1cccc2c(-c3cccnc3)c(C(=O)O)[nH]c12 [Example 24]")
"not met"

In the record for CC(C)c1cccc2c(-c3cc(Cl)cc(Cl)c3)c(C(=O)O)[nH]c12 [Example 76] , is IC50 less than 50 nM?
met

Threshold test, IC50 < 50 nM: CC(C)c1cccc2c(-c3ccc(S(=O)(=O)N(C)C)cc3)c(C(=O)Nc3ncco3)[nH]c12 [Example 128]
not met

Threshold test, IC50 < 50 nM: Cc1cccc2cc(C(=O)O)[nH]c12 [Example 114, 7-methyl-1H-indole-2-carboxylic acid]
not met

Report whether reported IC50 is lower than 50 nM (strictly) for CCCc1cccc2c(-c3ccc(F)cc3)c(C(=O)O)[nH]c12 [Example 52]
met

Does this compound meet the criterion IC50 < 50 nM? Cc1cccc2c(-c3ccc4cn[nH]c4c3)c(C(=O)O)[nH]c12 [Example 32]
met

Here's an entry: CC(C)c1cccc2c(-c3ccc(CNS(C)(=O)=O)cc3)c(C(=O)O)[nH]c12 [Example 96] . Is its IC50 below 50 nM?
met

# TODO verify IC50 < 50 nM strictly for this compound: CN(C)S(=O)(=O)c1ccc(-c2c(C(=O)O)[nH]c3c(CCOc4ccccc4)cccc23)cc1 [Example 81]
met

Below 50 nM on IC50? Entry Cc1cccc2c(-c3ccc(C(N)=O)cc3)c(C(=O)O)[nH]c12 [Example 5]
met

Dear reviewer, please state whether CC(C)c1cccc2c(-c3ccc(Cn4cccn4)cc3)c(C(=O)O)[nH]c12 [Example 79] has IC50 strictly beneath 50 nM.
met

Just wondering, is IC50 of Cc1cccc2c1cc(C(=O)O)n2-c1ccc(F)cc1 [Example 120] below 50 nM?
not met
